The reported measurements were obtained from patent US5637731A.

pKi overview
target: muscarinic cholinergic receptor; type: binding, rat; settings: rat cerebral cortex, ^3 H-QNB 0.25 nM, 25° C., 120 minutes, pH 7.4
pKi: −log10 of the molar value. Counter-ions that a name gives are not always drawn.
MEASUREMENT KIND: pKi

# MOLECULE, VALUE QUALIFIER, ENDPOINT VALUE
rows = [
    ("C[C@@H]1CCN(CC#CCN(C)C)C1=O", "=", 5.11),
    ("COC(=O)O[C@@H]1CCN(CC#CCN2CCCC2)C1=O", "=", 4.56),
    ("CCCCCCCCCC(=O)O[C@H]1CC(=O)N(CC#CCN2CCCC2)C1", "=", 7.46),
    ("CS[C@H]1CCN(CC#CCN2CCCC2)C1=O", "=", 4.28),
    ("CN(C)CC#CCN1CC[C@@H](OC(=O)C(C)(C)C)C1=O", "=", 3.39),
    ("O=C(NCC#CCN1CCCC1)C(F)(F)F [monohydrochloride]", "=", 4.73),
    ("C[C@H]1CCN(CC#CCN(C)C)C1=O", "=", 4.45),
    ("CCCCCCCCOC(=O)O[C@@H]1CCN(CC#CCN(C)C)C1=O", "=", 5.82),
    ("O=C1C(O)CCN1CC#CCn1ccnc1 (stereo not shown)", "<", 4.00),
    ("CN(C)CC#CCN1CC[C@H](N)C1=O [dihydrochloride]", "<", 4.00),
    ("CC(C)(C)[Si](C)(C)OC[C@H]1CCCN1CC#CCN1CC[C@@H](O)C1=O", "<", 4.00),
    ("CC1CCN(CC#CCN2CCC(O[Si](C)(C)C(C)(C)C)C2)C1=O (stereo not shown)", "<", 4.00),
    ("COC(=O)O[C@H]1CC(=O)N(CC#CCN2CCCC2)C1", "=", 5.74),
    ("CCCCCCCCOC(=O)O[C@@H]1CCN(CC#CC[N+](C)(C)C)C1=O", "=", 6.70),
    ("CC(C)(C)C(=O)O[C@H]1CCN(CC#CCN2CCCC2)C1=O", "=", 5.34),
    ("O=C1[C@@H](O)CCN1CC#CCn1ccnc1", "<", 4.00),
    ("CCN(CC)CC#CCN [dihydrochloride]", "<", 4.00),
    ("CN(CC#CCN1CC[C@@H](O)C1=O)CCO", "<", 4.00),
    ("CN(C)CC#CCN1CC[C@H](N=[N+]=[N-])C1=O", "<", 4.00),
    ("N[C@H]1CCN(CC#CCN2CCCC2)C1=O [dihydrochloride]", "=", 4.13),
    ("CC(C)C(=O)O[C@H]1CCN(CC#CC[N+](C)(C)C)C1=O", "=", 4.19),
    ("CC1CCN(CC#CCN2CCC2)C1=O (racemic) [Racemic 1-[4-(1-azetidinyl)-2-butynyl-3-methyl-2-pyrrolidinone]", "=", 5.70),
    ("CCCCCCCCOC(=O)O[C@@H]1CCN(CC#CCN2CCCC2)C1=O", "=", 7.00),
    ("CN(C)CC#CCN [dihydrochloride]", "<", 4.00),
    ("CC1CCN(CC#CCN(C)C)C1=O (racemic) [Racemic 1-[4-(1-Dimethylamino)-2-butynyl]-3-methyl-2-pyrrolidinone]", "=", 4.68),
    ("O=C1[C@@H](O)CCN1CC#CCN1CCC[C@@H]1CO", "<", 4.00),
    ("COC(=O)O[C@@H]1CCN(CC#CCN(C)C)C1=O [monohydrochloride]", "=", 4.28),
    ("CCN(CC)CC#CCNC(=O)C(F)(F)F [monohydrochloride]", "<", 4.00),
    ("CCCCCCCCNC(=O)O[C@H]1CC(=O)N(CC#CCN2CCCC2)C1", "=", 6.89),
    ("CC1(O)CCN(CC#CCN2CCCC2)C1=O (racemic) [Racemic-3-Hydroxy-3-methyl-1-[4-(1-pyrrolidinyl)-2-butynyl]-2-pyrrolidinone]", "=", 5.07),
    ("CN(C)CC#CCN1CC[C@H](O)C1=O", "=", 4.57),
    ("CN(C)CC#CCN1CC[C@@H](N=[N+]=[N-])C1=O", "<", 4.00),
    ("CCCCCCCCNC(=O)O[C@@H]1CCN(CC#CCN2CCCC2)C1=O", "=", 6.70),
    ("CC(=O)O[C@H]1CCN(CC#CCN(C)CCO)C1=O", "<", 4.00),
    ("CN(CC#CCN1CC[C@H](O)C1=O)CCO", "<", 4.00),
    ("CN(C)CC#CCN1CC[C@H](O[Si](C)(C)C(C)(C)C)C1=O", "=", 4.84),
    ("CN(C)CC#CCN1CC[C@@H](N)C1=O [dihydrochloride]", "<", 4.00),
    ("CC(C)C(=O)O[C@@H]1CCN(CC#CC[N+](C)(C)C)C1=O", "=", 4.35),
    ("CC(C)C(=O)O[C@H]1CCN(CC#CCN2CCCC2)C1=O", "=", 5.14),
    ("CC(C)(C)C(=O)O[C@@H]1CCN(CC#CC[N+](C)(C)C)C1=O", "<", 4.00),
    ("CCCCCCCCCC(=O)O[C@H]1CCN(CC#CC[N+](C)(C)C)C1=O", "=", 8.52),
    ("[N-]=[N+]=N[C@H]1CCN(CC#CCN2CCCC2)C1=O", "=", 5.50),
    ("CC1CCN(CC#CCn2ccnc2)C1=O (racemic) [Racemic 1-[4-(1H-imidazol-1-yl)-2-butynyl]-3-methyl-2-pyrrolidinone]", "=", 5.17),
]
